Design: species or system rats
CONDITIONS: rat, in vivo, sc, 230 ug/kg;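 note: blood drawn at alternating time points, with three animals in each cohort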
// Tmax lookup, one value per entry
Write it as a number; the unit h goes unstated.

CTP-OXM-CTP-CTP: oxyntomodulin with one CTP on the amino terminus and two on the carboxy terminus, SEQ ID NO: 15 (protein, CTP-OXM-CTP-CTP) MATGSRTSLLLAFGLLCLPWLQEGSASSSSKAPPPSLPSPSRLPGPSDTPILPQHSQGTFTSDYSKYLDSRRAQDFVQWLMNTKRNRNNIASSSSKAPPPSLPSPSRLPGPSDTPILPQSSSSKAPPPSLPSPSRLPGPSDTPILPQ : 6.00
OXM-CTP-CTP: oxyntomodulin with two CTPs in tandem on the carboxy terminus, SEQ ID NO: 21, expressed in CHO cells (protein, OXM-CTP-CTP) LEDMATGSRTSLLLAFGLLCLPWLQEGSAHSQGTFTSDYSKYLDSRRAQDFVQWLMNTKRNRNNIASSSSKAPPPSLPSPSRLPGPSDTPILPQSSSSKAPPPSLPSPSRLPGPSDTPILPQ : 6.00
CTP-OXM-CTP: oxyntomodulin with one CTP on the amino terminus and one on the carboxy terminus, SEQ ID NO: 9 (protein, CTP-OXM-CTP) MATGSRTSLLLAFGLLCLPWLQEGSASSSSKAPPPSLPSPSRLPGPSDTPILPQHSQGTFTSDYSKYLDSRRAQDFVQWLMNTKRNRNNIASSSSKAPPPSLPSPSRLPGPSDTPILPQ : 1.00

query: Please report the recorded Tmax for CTP-CTP-OXM: oxyntomodulin with two CTPs on the amino terminus, SEQ ID NO: 23 (protein, CTPx2-OXM) MATGSRTSLLLAFGLLCLPWLQEGSASSSSKAPPPSLPSPSRLPGPSDTPILPQSSSSKAPPPSLPSPSRLPGPSDTPILPQHSQGTFTSDYSKYLDSRRAQDFVQWLMNTKRNRNNIARSGCGRGTLGLMGLPFTARFP .
result: 1.00
